Hey, just so you know, these numbers are from ChEMBL document CHEMBL1130285.

Target: D(2) dopamine receptor (Rattus norvegicus, UniProt P61169)
Sequence (P61169 whole entry): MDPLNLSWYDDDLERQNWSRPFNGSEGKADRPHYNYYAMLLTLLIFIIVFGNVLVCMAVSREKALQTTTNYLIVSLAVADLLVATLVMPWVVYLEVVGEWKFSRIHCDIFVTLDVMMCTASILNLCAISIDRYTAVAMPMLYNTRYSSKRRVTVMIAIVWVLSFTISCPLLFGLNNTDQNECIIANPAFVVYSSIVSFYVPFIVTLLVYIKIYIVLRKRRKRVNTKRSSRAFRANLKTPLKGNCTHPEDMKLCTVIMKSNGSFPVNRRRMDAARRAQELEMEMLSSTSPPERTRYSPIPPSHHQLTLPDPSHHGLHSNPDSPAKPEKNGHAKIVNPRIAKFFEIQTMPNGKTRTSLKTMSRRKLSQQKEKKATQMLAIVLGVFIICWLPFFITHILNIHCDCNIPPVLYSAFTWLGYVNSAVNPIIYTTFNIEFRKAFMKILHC
Assay: pKi value against rat Dopamine receptor D2.
pKi: −log10 of the molar value.
Classify by measured pKi: TRUE if it is equal to or exceeds 8, FALSE if it is smaller.

Some solved entries appear below for comparison.
# compound, system.tested, label.class
rows = [
    ("COc1ccccc1N1CCN(CCNC(C)=O)CC1", "D(2) dopamine receptor (Rattus norvegicus, UniProt P61169)", "FALSE"),
    ("COc1ccccc1N1CCN(CCCC(O)c2ccc(F)cc2)CC1 (stereo unspecified)", "D(2) dopamine receptor (Rattus norvegicus, UniProt P61169)", "TRUE"),
    ("COc1ccccc1N1CCN(CCNC(=O)c2cccnc2)CC1", "D(2) dopamine receptor (Rattus norvegicus, UniProt P61169)", "FALSE"),
    ("COc1ccccc1N1CCN(CCNC(=O)c2ccncn2)CC1", "D(2) dopamine receptor (Rattus norvegicus, UniProt P61169)", "FALSE"),
    ("COc1ccccc1N1CCN(CCNC(=N)C2CCCCC2)CC1", "D(2) dopamine receptor (Rattus norvegicus, UniProt P61169)", "FALSE"),
    ("COc1ccccc1N1CCN(CCCCc2ccc(F)cc2)CC1", "D(2) dopamine receptor (Rattus norvegicus, UniProt P61169)", "TRUE"),
    ("COc1ccccc1N1CCN(CCNC(=O)c2ccco2)CC1", "D(2) dopamine receptor (Rattus norvegicus, UniProt P61169)", "FALSE"),
    ("COc1ccccc1N1CCN(CC/C=C/c2ccc(F)cc2)CC1", "D(2) dopamine receptor (Rattus norvegicus, UniProt P61169)", "TRUE"),
    ("COc1ccccc1N1CCN(CCNC(=O)c2ccc[nH]2)CC1", "D(2) dopamine receptor (Rattus norvegicus, UniProt P61169)", "FALSE"),
    ("COc1ccccc1N1CCN(CCCC(=O)c2ccc(F)cc2)CC1", "D(2) dopamine receptor (Rattus norvegicus, UniProt P61169)", "TRUE"),
]

Please look at the following compound next.
Does the reported pKi for COc1ccccc1N1CCN(CCCOc2ccc(F)cc2)CC1 fall at or above the 8 mark?
TRUE

====

Target: D(2) dopamine receptor (Rattus norvegicus, UniProt P61169)
Assay: In vitro displacement of [3H]spiperone from Dopamine receptor D2 binding site in rat striatum.
Recorded pKi for the following compounds
Bear in mind: pKi is minus log10 of a mol/L concentration; give just that figure.

# smiles.input, observed
records = [
    ("COc1ccccc1N1CCN(CCOCc2ccc(F)cc2)CC1", 8.00),
    ("COc1ccccc1N1CCN(CCNC(=S)C2CCCCC2)CC1", 8.19),
]

Endpoint output: pKi of O=C(NCCN1CCN(c2cccc3c2OCCO3)CC1)c1ccc(F)cc1 . Value?
7.85

====

Recorded Ki for the following compounds
Biological target: D(2) dopamine receptor (Rattus norvegicus, UniProt P61169)
Assay: pKi value against rat Dopamine receptor D2.
Numbers only here, please. The scale is nM.

Endpoint output: Ki of COc1ccccc1N1CCN(CCNC(=O)c2cccs2)CC1 . Value?
15.8

Endpoint output: Ki of COc1ccccc1N1CCN(CCNC(=O)C2CCCCC2)CC1 . Value?
12.6

Endpoint output: Ki of COc1ccccc1N1CCN(CCNC(=O)c2ccccc2)CC1 . Value?
12.6

Endpoint output: Ki of COc1ccccc1N1CCN(CCNC(=S)C2CCCCC2)CC1 . Value?
6.31

Endpoint output: Ki of COc1ccccc1N1CCN(CCOCc2ccc(F)cc2)CC1 . Value?
10
